- System: adjuvant-associated biological themes in LV, SP, LN
- STUDY_CONDITIONS: LV, ID
Hi there, I'd appreciate the recorded GO annotation: immune response-activating signal transduction (Term: immune response) for every entry that follows.
Give bare numbers.

Worked cases, answers included:
COMPOUND	EXPERIMENTAL_VALUE
Cc1ccc2c(=O)c3cccc(CC(=O)O)c3oc2c1C	5.98
CC(O)COC[C@H]1O[C@@H]2O[C@H]3[C@H](O)[C@@H](O)[C@@H](O[C@H]4[C@H](O)[C@@H](O)[C@@H](O[C@H]5[C@H](O)[C@@H](O)[C@@H](O[C@H]6[C@H](O)[C@@H](O)[C@@H](O[C@H]7[C@H](O)[C@@H](O)[C@@H](O[C@H]8[C@H](O)[C@@H](O)[C@@H](O[C@H]1[C@H](O)[C@H]2O)O[C@@H]8COCC(C)O)O[C@@H]7COCC(C)O)O[C@@H]6COCC(C)O)O[C@@H]5COCC(C)O)O[C@@H]4COCC(C)O)O[C@@H]3COCC(C)O (stereo partly drawn) [bCD, Hydroxypropyl-beta-cyclodextrin]	0

Batch request: GO annotation: immune response-activating signal transduction (Term: immune response) for each of the following compounds.
1. Nc1nc2c(ncn2[C@@H]2O[C@@H]3COP(=O)(O)O[C@H]4[C@@H](O)[C@H](n5cnc6c(N)ncnc65)O[C@@H]4COP(=O)(O)O[C@@H]2[C@@H]3O)c(=O)[nH]1 [cGAMP, Cyclic [G(2′,5′)pA(3′,5′)p]]
2. Nc1nc2c(ncn2[C@@H]2O[C@@H]3COP(=O)(O)O[C@H]4[C@@H](O)[C@H](n5cnc6c(=O)[nH]c(N)nc65)O[C@@H]4COP(=O)(O)O[C@H]3[C@H]2O)c(=O)[nH]1 [cdiGMP, Cyclic diguanylate monophosphate]

A.
1: 14.1; 2: 19.3

* * *

- Test system: adjuvant-associated biological themes in LV, SP, LN
- STUDY_CONDITIONS: LV, ID
MEASURED_PROPERTY: GO annotation: activation of innate immune response (Term: innate immune response)
Answers are plain numbers.

MOLECULE	EXPERIMENTAL_VALUE
Cc1ccc2c(=O)c3cccc(CC(=O)O)c3oc2c1C [DMXAA, 5,6-dimethylxanthenone-4-acetic acid]	9.24
Nc1nc2c(ncn2[C@@H]2O[C@@H]3COP(=O)(O)O[C@H]4[C@@H](O)[C@H](n5cnc6c(=O)[nH]c(N)nc65)O[C@@H]4COP(=O)(O)O[C@H]3[C@H]2O)c(=O)[nH]1 [cdiGMP, Cyclic diguanylate monophosphate]	21.2
Nc1nc2c(ncn2[C@@H]2O[C@@H]3COP(=O)(O)O[C@H]4[C@@H](O)[C@H](n5cnc6c(N)ncnc65)O[C@@H]4COP(=O)(O)O[C@@H]2[C@@H]3O)c(=O)[nH]1 [cGAMP, Cyclic [G(2′,5′)pA(3′,5′)p]]	16.9

# next molecule below
Q. So what GO annotation: activation of innate immune response (Term: innate immune response) did CC(O)COC[C@H]1O[C@@H]2O[C@H]3[C@H](O)[C@@H](O)[C@@H](O[C@H]4[C@H](O)[C@@H](O)[C@@H](O[C@H]5[C@H](O)[C@@H](O)[C@@H](O[C@H]6[C@H](O)[C@@H](O)[C@@H](O[C@H]7[C@H](O)[C@@H](O)[C@@H](O[C@H]8[C@H](O)[C@@H](O)[C@@H](O[C@H]1[C@H](O)[C@H]2O)O[C@@H]8COCC(C)O)O[C@@H]7COCC(C)O)O[C@@H]6COCC(C)O)O[C@@H]5COCC(C)O)O[C@@H]4COCC(C)O)O[C@@H]3COCC(C)O (stereo partly drawn) [bCD, Hydroxypropyl-beta-cyclodextrin] get with adjuvant-associated biological themes in LV, SP, LN?
A. 0
